Values from ChEMBL document CHEMBL1135998

assay: in vivo; details: rat, plasma, po, 30 mg/kg
value-kind: AUC (ng·h/mL)
Express the result in ng·h/mL but write the number alone.

input: Please give the documented AUC of "COc1cc2c(N3CCN(C(=O)Nc4ccc(OC(C)C)cc4)CC3)ncnc2cc1OCCN1CCCCC1"
output: 4410

* * *

assay: in vivo; conditions: simiiformes, po, 10 mg/kg
value-kind: Cmax (ng/mL)
Express the result in ng/mL but write the number alone.

input: Please give the documented Cmax of "COc1cc2c(N3CCN(C(=O)Nc4ccc(OC(C)C)cc4)CC3)ncnc2cc1OCCN1CCCCC1"
output: 386

* * *

assay: in vivo; settings: dog, po, 5 mg/kg
value-kind: Cmax (ng/mL)
Express the result in ng/mL but write the number alone.

input: Please give the documented Cmax of "COc1cc2c(N3CCN(C(=O)Nc4ccc(OC(C)C)cc4)CC3)ncnc2cc1OCCCN1CCOCC1"
output: 183

input: Please give the documented Cmax of "COc1cc2c(N3CCN(C(=O)Nc4ccc(OC(C)C)cc4)CC3)ncnc2cc1OCCN1CCCCC1"
output: 43

* * *

assay: in vivo; conditions: simiiformes, po, 5 mg/kg
value-kind: Cmax (ng/mL)
Express the result in ng/mL but write the number alone.

input: Please give the documented Cmax of "COc1cc2c(N3CCN(C(=O)Nc4ccc(OC(C)C)cc4)CC3)ncnc2cc1OCCCN1CCOCC1"
output: 135

* * *

assay: in vivo; settings: primates, po, 5 mg/kg
value-kind: bioavailability (%)
Express the result in % but write the number alone.

input: Please give the documented bioavailability of COc1cc2c(N3CCN(C(=O)Nc4ccc(OC(C)C)cc4)CC3)ncnc2cc1OCCCN1CCCCC1 [TANDUTINIB]
output: 48.9

* * *

experiment: in vivo; details: dog, po, 7.5 mg/kg
value-kind: Cmax (ng/mL)
Express the result in ng/mL but write the number alone.

input: Please give the documented Cmax of "COc1cc2c(N3CCN(C(=O)Nc4ccc(OC(C)C)cc4)CC3)ncnc2cc1OCCCN1CCCCC1"
output: 481

* * *

assay: in vivo; conditions: rat, po, 30 mg/kg
value-kind: Cmax (ng/mL)
Express the result in ng/mL but write the number alone.

input: Please give the documented Cmax of "COc1cc2c(N3CCN(C(=O)Nc4ccc(OC(C)C)cc4)CC3)ncnc2cc1OCCCN1CCCCC1"
output: 256

* * *

assay: in vivo; conditions: rat, po, 5 mg/kg
value-kind: AUC (ng·h/mL)
Express the result in ng·h/mL but write the number alone.

input: Please give the documented AUC of "COc1cc2c(N3CCN(C(=O)Nc4ccc(OC(C)C)cc4)CC3)ncnc2cc1OCCCN1CCOCC1"
output: 176

* * *

assay: in vivo; details: dog, po, 5 mg/kg
value-kind: bioavailability (%)
Express the result in % but write the number alone.

input: Please give the documented bioavailability of "COc1cc2c(N3CCN(C(=O)Nc4ccc(OC(C)C)cc4)CC3)ncnc2cc1OCCN1CCCCC1"
output: 13.5

input: Please give the documented bioavailability of "COc1cc2c(N3CCN(C(=O)Nc4ccc(OC(C)C)cc4)CC3)ncnc2cc1OCCCN1CCOCC1"
output: 63.3

* * *

experiment: in vivo; settings: rat, po, 30 mg/kg
value-kind: bioavailability (%)
Express the result in % but write the number alone.

input: Please give the documented bioavailability of COc1cc2c(N3CCN(C(=O)Nc4ccc(OC(C)C)cc4)CC3)ncnc2cc1OCCCN1CCCCC1 [TANDUTINIB]
output: 23.8

* * *

assay: in vivo; conditions: rat, po, 5 mg/kg
value-kind: bioavailability (%)
Express the result in % but write the number alone.

input: Please give the documented bioavailability of "COc1cc2c(N3CCN(C(=O)Nc4ccc(OC(C)C)cc4)CC3)ncnc2cc1OCCCN1CCOCC1"
output: 20.8

* * *

experiment: in vivo; settings: dog, po, 5 mg/kg
value-kind: AUC (ng·h/mL)
Express the result in ng·h/mL but write the number alone.

input: Please give the documented AUC of "COc1cc2c(N3CCN(C(=O)Nc4ccc(OC(C)C)cc4)CC3)ncnc2cc1OCCN1CCCCC1"
output: 387

input: Please give the documented AUC of "COc1cc2c(N3CCN(C(=O)Nc4ccc(OC(C)C)cc4)CC3)ncnc2cc1OCCCN1CCOCC1"
output: 1390

* * *

test: in vivo; settings: primates, po, 5 mg/kg
value-kind: bioavailability (%)
Express the result in % but write the number alone.

input: Please give the documented bioavailability of "COc1cc2c(N3CCN(C(=O)Nc4ccc(OC(C)C)cc4)CC3)ncnc2cc1OCCCN1CCOCC1"
output: 18.9

* * *

assay: in vivo; settings: dog, po, 7.5 mg/kg
value-kind: bioavailability
Reply with a number, then the unit it belongs to.

input: Please give the documented bioavailability of "COc1cc2c(N3CCN(C(=O)Nc4ccc(OC(C)C)cc4)CC3)ncnc2cc1OCCCN1CCCCC1"
output: 97.6%

* * *

assay: in vivo; conditions: dog, po, 7.5 mg/kg
value-kind: AUC
Reply with a number, then the unit it belongs to.

input: Please give the documented AUC of "COc1cc2c(N3CCN(C(=O)Nc4ccc(OC(C)C)cc4)CC3)ncnc2cc1OCCCN1CCCCC1"
output: 2690 ng·h/mL
